Recorded values, source ChEMBL document CHEMBL4033724.

Target: Carbonic anhydrase 9 (Homo sapiens)
Experiment: Inhibition of recombinant human membrane bound carbonic anhydrase 9 expressed in Escherichia coli pretreated for 15 mins prior to testing by stopped-flow assay
Lab note: compare Ki with 20 nM, writing rule met if less and rule not met if equal or more.

Some solved entries appear below for comparison.
* NS(=O)(=O)c1ccc(NC(=S)N/N=C2\C(=O)Nc3ccc(I)cc32)cc1 | rule met
* NS(=O)(=O)c1ccc(NC(=S)N/N=C2\C(=O)Nc3c(F)cccc32)cc1 | rule not met
* Cc1ccc2c(c1)/C(=N/NC(=S)Nc1ccc(S(N)(=O)=O)cc1)C(=O)N2 | rule not met

Request: Does the reported Ki of NS(=O)(=O)c1ccc(NC(=S)N/N=C2\C(=O)Nc3c(Br)cc(Br)cc32)cc1 stay below 20 nM?
Result: rule not met

* * *

Measured pKi by item
Biological target: Carbonic anhydrase 12 (Homo sapiens)
Assay: Inhibition of recombinant human […] expressed in Escherichia coli pretreated for 15 mins prior to testing by stopped-flow assay
pKi here: minus log base 10 of the concentration, concentration in moles per litre.

// worked examples, pKi included
* NS(=O)(=O)c1ccc(NC(=S)N/N=C2\C(=O)Nc3ccc(S(=O)(=O)O)cc32)cc1 | 8.92
* Cc1ccc2c(c1)/C(=N/NC(=S)Nc1ccc(S(N)(=O)=O)cc1)C(=O)N2 | 8.24
* NS(=O)(=O)c1ccc(NC(=S)N/N=C2\C(=O)Nc3c(F)cccc32)cc1 | 7.34
* NS(=O)(=O)c1ccc(NC(=S)N/N=C2\C(=O)Nc3ccc(OC(F)(F)F)cc32)cc1 | 8.22
* NS(=O)(=O)c1ccc(NC(=S)N/N=C2\C(=O)Nc3c(Br)cc(Br)cc32)cc1 | 8.20
* NS(=O)(=O)c1ccc(NC(=S)N/N=C2\C(=O)Nc3ccc(I)cc32)cc1 | 8.23
* NS(=O)(=O)c1ccc(NC(=S)N/N=C2\C(=O)Nc3ccccc32)cc1 | 8.16
* NS(=O)(=O)c1ccc(NC(=S)N/N=C2\C(=O)Nc3ccc(Br)cc32)cc1 | 8.21

Now examine the next entry.
Request: Item: NS(=O)(=O)c1ccc(NC(=S)N/N=C2\C(=O)Nc3ccc(Cl)cc32)cc1 Test system: Carbonic anhydrase 12 (Homo sapiens) Read-out: pKi Value: ?
Result: 8.24

* * *

Measured pKi by item
Molecular target: Carbonic anhydrase 12 (Homo sapiens, UniProt O43570)
Sequence (O43570 whole entry): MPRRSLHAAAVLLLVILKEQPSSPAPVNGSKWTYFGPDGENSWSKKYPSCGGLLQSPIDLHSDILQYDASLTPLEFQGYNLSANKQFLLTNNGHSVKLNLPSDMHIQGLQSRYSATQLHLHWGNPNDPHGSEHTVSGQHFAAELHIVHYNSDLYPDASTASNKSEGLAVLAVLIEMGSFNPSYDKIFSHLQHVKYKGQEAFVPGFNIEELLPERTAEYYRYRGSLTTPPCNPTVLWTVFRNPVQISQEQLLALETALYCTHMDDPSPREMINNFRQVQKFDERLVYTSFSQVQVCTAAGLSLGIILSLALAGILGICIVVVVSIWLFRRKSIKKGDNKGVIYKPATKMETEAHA
Experiment: Inhibition of recombinant human […] expressed in Escherichia coli pretreated for 15 mins prior to testing by stopped-flow assay
pKi here: minus log base 10 of the concentration, concentration in moles per litre.

- NS(=O)(=O)c1ccc(NC(=S)N/N=C2\C(=O)Nc3c(Cl)cc(Cl)cc32)cc1: 7.08
- NS(=O)(=O)c1ccc(NC(=S)N/N=C2\C(=O)Nc3c(Cl)cccc32)cc1: 7.06
- NS(=O)(=O)c1ccc(NC(=S)N/N=C2\C(=O)Nc3ccc(F)cc32)cc1: 8.35

Now examine the next entry.
Request: Param item = NS(=O)(=O)c1ccc(NC(=S)N/N=C2\C(=O)Nc3ccc([N+](=O)[O-])cc32)cc1 ; retrieve measured pKi.
Result: 8.39

* * *

Measured Ki by item
Target: Carbonic anhydrase 9 (Homo sapiens, UniProt Q16790)
Assay: Inhibition of recombinant human membrane bound carbonic anhydrase 9 expressed in Escherichia coli pretreated for 15 mins prior to testing by stopped-flow assay
State the value with its unit after it.

Request: Item: NS(=O)(=O)c1ccc(NC(=S)N/N=C2\C(=O)Nc3ccc(Cl)cc32)cc1 Test system: Carbonic anhydrase 9 (Homo sapiens, UniProt Q16790) Read-out: Ki Value: ?
Result: 54.2 nM
